- target_or_test_system: DRB4*0101 (Homo sapiens, UniProt P01903+P13762, G164S)
- experimental_protocol: biochemical
- Format: binding
No end group written: not given here.
measurement_kind: IC50 (nM)
Numbers only; they are read as nM.

Solved cases (4 shown):
Sample GEIYIIEEDTCTMVT [Peptide 90.0202] , system: DRB4*0101 (Homo sapiens, UniProt P01903+P13762, G164S). Its IC50 is 322

Sample LLEFIDDSMENSIQA [Peptide 90.0077] , system: DRB4*0101 (Homo sapiens, UniProt P01903+P13762, G164S). Its IC50 is 734

Sample VDFIDTQLSICEQAE [Peptide 89.0078] , system: DRB4*0101 (Homo sapiens, UniProt P01903+P13762, G164S). Its IC50 is 471

Sample LKRFLQGIPKKNCIL [Peptide 89.0016] , system: DRB4*0101 (Homo sapiens, UniProt P01903+P13762, G164S). Its IC50 is 1700

Proceed to the following item.
Sample QHSFNDDIFDLSEMI [Peptide 90.0152] , system: DRB4*0101 (Homo sapiens, UniProt P01903+P13762, G164S). Its IC50 is 2.1

====

- target_or_test_system: A*2601 (Homo sapiens, UniProt P04439, A114D/A173T/A270S/D101N/D185E/E277Q/E87N/F33Y/G231S/I121R/I218V/K168Q/L180W/L300P/L318F/P208A/P217A/Q86R/Q94H/R138Q/S129P/T187R/T323A/T345S/V100A/V358M)
- experimental_protocol: biochemical
- Assay type: binding
No end group written: not given here.
measurement_kind: pIC50
Note: pIC50 values are expressed as the negative base-10 logarithm of concentration in M.

Solved cases (5 shown):
Reported pIC50 ( LSDTRNDVGPY [Peptide 9012.0164] ) = 6.23

Reported pIC50 ( SMDNPEGRY [Peptide 9012.0122] ) = 6.27

Reported pIC50 ( DSVQILVGY [Peptide 86.0147] ) = 8.55

Reported pIC50 ( TTSPLNTSY [Peptide 9012.0116] ) = 8.59

Reported pIC50 ( LSSALEIPY [Peptide 1549.01] ) = 5.39

---
Reported pIC50 ( HTASNPPAQY [Peptide 9012.0142] ) = 9.27

Reported pIC50 ( ATDVSHRGLY [Peptide 1593.10] ) = 7.74

Reported pIC50 ( ATCVSHRGLY [Peptide 1580.22] ) = 6.31

Reported pIC50 ( ISDSYTYY [Peptide 9012.0102] ) = 5.07

Reported pIC50 ( TTEPEAQNTTY [Peptide 9012.0166] ) = 6.28

Reported pIC50 ( LSDALEIPY [Peptide 1549.41] ) = 6.20

Reported pIC50 ( ITSPPDSSY [Peptide 9012.0118] ) = 6.34

Reported pIC50 ( ETDEEITGYLY [Peptide 9012.0180] ) = 7.57

====

- target_or_test_system: DR4w4 (DRB1*0401) (Homo sapiens, UniProt P01903+P01911, A100K/A169T/F76Y/I96L/K127E/L162R/M171V/N62H/P40V/Q125Y/R42H/S133A/S149N/S66Y/V115G/V209L/W38E)
- experimental_protocol: biochemical
- Type: binding
No end group written: not given here.
measurement_kind: IC50 (nM)
Numbers only; they are read as nM.

Solved cases (2 shown):
Reported IC50 ( MLAVFKDTYGLSFTD [Peptide 90.0050] ) = 829

Reported IC50 ( AKALQAIELQMMLET [Peptide 89.0171] ) = 78

---
Reported IC50 ( Ac-AAAKAAAAAAFAA [Peptide 730.09] ) = 421

Reported IC50 ( LKGDANILKCLRYRL [Peptide 1601.26] ) = 5590

Reported IC50 ( VDFIDTQLSICEQAE [Peptide 89.0078] ) = 1280

Reported IC50 ( YFKYFKEDAKKYSKT [Peptide 90.0253] ) = 3620

Reported IC50 ( NHQVVPALSVSKAKA [Peptide 89.0168] ) = 959

Reported IC50 ( ELQMALETLSKSQYS [Peptide 89.0183] ) = 434

Reported IC50 ( DYVLDLQPEATDLHC [Peptide 1543.10] ) = 35

Reported IC50 ( IHFLQGAIISFVNSN [Peptide 89.0089] ) = 499

Reported IC50 ( ESVFSSDEISFAGIV [Peptide 90.0195] ) = 33

Reported IC50 ( HCTLYTAVSSTWHWT [Peptide 89.0157] ) = 19000

Reported IC50 ( SDEISFAGIVTKLPT [Peptide 1601.45] ) = 8790

Reported IC50 ( CSAIEVQIALESLST [Peptide 90.0018] ) = 240

Reported IC50 ( NCILLYGPANTGKSY [Peptide 89.0087] ) = 280

Reported IC50 ( ETCMVIEPPKLRSQT [Peptide 90.0083] ) = 1550

Reported IC50 ( HALFTAQEAKQHRDA [Peptide 89.0001] ) = 205

====

- target_or_test_system: A*2902 (Homo sapiens, UniProt P04439, A270S/D101N/D185E/E176V/E277Q/E87Q/F33T/G231S/H175R/I121M/I218V/I322F/K168Q/L300P/L318F/M331R/P208A/P217A/Q86L/T323A/T345S/V100A/V358M)
- experimental_protocol: biochemical
- Format: binding
No end group written: not given here.
measurement_kind: pIC50
Note: pIC50 values are expressed as the negative base-10 logarithm of concentration in M.

Solved cases (3 shown):
Reported pIC50 ( HTASNPPAQY [Peptide 9012.0142] ) = 7.68

Reported pIC50 ( SMDNPEGRY [Peptide 9012.0122] ) = 5.84

Reported pIC50 ( YSDVRKYRY [Peptide 1549.49] ) = 6.68

Proceed to the following item.
Reported pIC50 ( ITDNNNGTY [Peptide 9012.0120] ) = 4.81

====

- target_or_test_system: A31 (A*3101) (Homo sapiens, UniProt P04439, A270S/D185E/E176V/E277Q/F33T/G231S/G80R/H175R/I121M/I218V/I322F/K168Q/L300P/L318F/M331R/P217A/Q94H/R138Q/T323A/T345S/T97I/V358M)
- experimental_protocol: biochemical
- Assay type: binding
No end group written: not given here.
Listed next: entries and their corresponding pIC50.
Note: pIC50 values are expressed as the negative base-10 logarithm of concentration in M.

Reported pIC50 ( TVNEYNTHK [Peptide 1589.36] ) = 5.39

Reported pIC50 ( TVYAEPPR [Peptide 1556.10] ) = 5.08

Reported pIC50 ( QTCALYWFR [Peptide 88.0361] ) = 7.29

Reported pIC50 ( VTVYYGVPVRR [Peptide 1525.07] ) = 7.23

Reported pIC50 ( TVSAELPR [Peptide 1556.22] ) = 4.94

Reported pIC50 ( MTLESILRR [Peptide 9012.0215] ) = 6.61

Reported pIC50 ( TFPHAFPFDK [Peptide 88.0176] ) = 5.30

Reported pIC50 ( TLTYISTSQR [Peptide 88.0211] ) = 6.16

Reported pIC50 ( STWHWTGCNK [Peptide 1589.28] ) = 6.80

Reported pIC50 ( VVLLLVRYK [Peptide 1587.05] ) = 8.92

---
Reported pIC50 ( SVICFVNSK [Peptide 1587.15] ) = 5.72

Reported pIC50 ( KSFLKGTPKK [Peptide 88.0149] ) = 6.24

====

- target_or_test_system: DRB5*0101 (Homo sapiens, UniProt P01903+Q30154)
- experimental_protocol: biochemical
- test_settings: Binding affinity DRB5 *0101
No end group written: not given here.
measurement_kind: IC50

Reported IC50 ( LNVLKTSNAKAAMLA [Peptide 89.0003] ) = 0.768 µM

Reported IC50 ( DSDIAYYYAQLADSN [Peptide 89.0071] ) = > 20 µM

Reported IC50 ( NGVLQGITSWGPEPC [Peptide 68.0017] ) = > 20 µM

Reported IC50 ( YFKYFKEDAKKYSKT [Peptide 90.0253] ) = 0.289 µM

Reported IC50 ( KSRLQGGVLVNEILN [Peptide 68.0046] ) = > 20 µM

---
Reported IC50 ( HQVVPALSVSKAKAL [Peptide 89.0169] ) = > 20 µM

Reported IC50 ( ESVFSSDEISFAGIV [Peptide 90.0195] ) = > 20 µM

Reported IC50 ( NCILLYGPANTGKSY [Peptide 89.0087] ) = 6.46 µM

Reported IC50 ( HKAIELQMALKGLAQ [Peptide 90.0004] ) = 0.057 µM

Reported IC50 ( KIGMIDDVTPISWTY [Peptide 90.0087] ) = > 20 µM
